Biological target: AP-2 complex subunit beta (Homo sapiens) (UniProt P63010)
Sequence (P63010 whole entry, looked up, one chain of several): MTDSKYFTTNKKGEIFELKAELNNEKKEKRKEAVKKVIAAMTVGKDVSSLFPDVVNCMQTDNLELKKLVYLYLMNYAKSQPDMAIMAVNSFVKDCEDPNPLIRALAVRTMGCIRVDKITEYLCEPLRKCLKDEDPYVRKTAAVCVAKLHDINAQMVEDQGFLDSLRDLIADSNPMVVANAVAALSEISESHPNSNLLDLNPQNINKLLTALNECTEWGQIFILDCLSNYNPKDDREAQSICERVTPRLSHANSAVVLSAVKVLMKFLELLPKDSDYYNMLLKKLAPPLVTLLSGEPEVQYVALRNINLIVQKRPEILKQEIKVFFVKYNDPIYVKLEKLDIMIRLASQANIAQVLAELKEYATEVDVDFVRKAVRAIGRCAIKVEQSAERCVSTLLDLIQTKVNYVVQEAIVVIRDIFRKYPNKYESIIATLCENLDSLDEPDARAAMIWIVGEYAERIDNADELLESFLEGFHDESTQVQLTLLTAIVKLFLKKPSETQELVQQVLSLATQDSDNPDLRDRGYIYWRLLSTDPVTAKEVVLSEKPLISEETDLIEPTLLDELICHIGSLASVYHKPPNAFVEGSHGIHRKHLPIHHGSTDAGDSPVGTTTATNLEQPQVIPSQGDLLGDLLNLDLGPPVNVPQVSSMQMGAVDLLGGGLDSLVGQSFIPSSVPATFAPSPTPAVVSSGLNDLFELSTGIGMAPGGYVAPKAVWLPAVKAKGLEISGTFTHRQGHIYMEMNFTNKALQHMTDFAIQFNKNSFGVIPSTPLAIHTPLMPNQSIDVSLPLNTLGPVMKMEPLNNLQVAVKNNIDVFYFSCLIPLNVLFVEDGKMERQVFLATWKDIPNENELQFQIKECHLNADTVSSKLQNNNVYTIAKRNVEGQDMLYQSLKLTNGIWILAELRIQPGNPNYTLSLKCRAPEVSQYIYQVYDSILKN
Assay: inhibitors of arrestin peptide binding to AP2, pilot screen, biochemical, validation set, GST-AP2 beads, flow cytometry (AID 504541);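 further: AP2 carries R879A mutation and is captured from E. coli lysate; bead-bound FITC arrestin peptide fluorescence measuring arrestin peptide binding to AP2; 0% = DMSO wells and 100% = excess unlabeled arrestin peptide control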
Conditions: FITC arrestin peptide, at 10 µM, active compounds read high, AP2 beta2 appendage fragment, R879A mutant
Peptide text beside a SMILES is read from it. * marks the point of attachment. Boc = CC(C)(C)OC(=O)*
result-type: inhibition (%)
Dear colleague, please return just the value in %, with no unit written.

Recorded inhibition, per entry:
molecule	inhibition / %
c1ccc2c(CC3=NCCN3)cccc2c1	-1.38
COC(=O)CN1CC(=O)N(c2ccccc2)C1=S	9.42
O=C1C=CC(=O)C(C2=C3C(=O)N(CCc4ccccc4)CC(=O)N3CCC2)=C1	12
CC1(C)Cc2nc3oc4c(NCc5ccccc5)ncnc4c3cc2CO1	-8.27
O=C(O)CCSc1nc2ccccc2s1	-3.62
CC(C)(C)OC(=O)N1CCCC1C(=O)NC(Cc1ccccc1)C(=O)O (stereo not drawn) (Boc-Pro-Phe-OH; configuration not given here)	9.73

[in] Dear colleague, I am looking for the recorded inhibition of the following molecule: Cc1c(OC(=O)CNC(=O)OC(C)(C)C)ccc2c3c(c(=O)oc12)CCC3
[out] 4.15

[in] Dear colleague, I am looking for the recorded inhibition of the following molecule: Cc1ccc2c(c1)C(O)(CC(=O)/C=C/C=C/c1ccccc1)C(=O)N2 (stereo not given)
[out] 4.01

[in] Dear colleague, I am looking for the recorded inhibition of the following molecule: Cc1cnc(C(=O)N2CCCC(C(=O)c3ccc(Cl)cc3C)C2)cn1 (stereo not given)
[out] 21.9

[in] Dear colleague, I am looking for the recorded inhibition of the following molecule: CCOC(=O)COc1ccc2c(=O)c(-c3ccccc3)coc2c1
[out] 1.34

Data origin: PubChem BioAssay
